target of assay: human TLR9 (Homo sapiens, UniProt Q9NR96)
Sequence (Q9NR96 26-1032): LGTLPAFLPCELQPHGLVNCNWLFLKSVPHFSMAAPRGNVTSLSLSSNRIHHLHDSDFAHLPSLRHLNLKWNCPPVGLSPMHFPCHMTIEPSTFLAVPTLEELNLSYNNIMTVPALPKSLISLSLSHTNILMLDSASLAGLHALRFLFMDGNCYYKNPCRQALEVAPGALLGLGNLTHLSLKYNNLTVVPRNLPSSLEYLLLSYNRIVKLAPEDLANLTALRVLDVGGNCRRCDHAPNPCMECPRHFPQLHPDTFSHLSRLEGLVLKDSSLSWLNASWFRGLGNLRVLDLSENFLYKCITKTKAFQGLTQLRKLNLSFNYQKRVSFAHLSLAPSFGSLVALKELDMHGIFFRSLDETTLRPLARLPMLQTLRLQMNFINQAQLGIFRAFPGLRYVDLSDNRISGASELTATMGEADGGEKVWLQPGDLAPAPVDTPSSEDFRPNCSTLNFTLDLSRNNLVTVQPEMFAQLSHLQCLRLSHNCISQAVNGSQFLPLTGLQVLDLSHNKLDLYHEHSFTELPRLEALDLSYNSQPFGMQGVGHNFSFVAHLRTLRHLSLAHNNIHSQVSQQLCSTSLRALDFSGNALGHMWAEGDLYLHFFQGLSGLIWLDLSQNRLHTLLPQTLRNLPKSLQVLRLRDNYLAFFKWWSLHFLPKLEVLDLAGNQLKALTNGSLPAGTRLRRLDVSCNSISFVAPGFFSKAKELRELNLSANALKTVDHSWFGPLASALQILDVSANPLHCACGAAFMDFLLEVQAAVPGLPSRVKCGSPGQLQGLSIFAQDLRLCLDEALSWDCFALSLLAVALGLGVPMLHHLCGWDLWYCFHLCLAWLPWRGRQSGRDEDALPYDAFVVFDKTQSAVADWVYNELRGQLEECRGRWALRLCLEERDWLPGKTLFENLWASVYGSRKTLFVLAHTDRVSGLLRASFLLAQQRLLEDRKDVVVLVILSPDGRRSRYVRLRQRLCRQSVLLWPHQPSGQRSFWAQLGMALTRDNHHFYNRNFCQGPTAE
test protocol: TLR9 inhibition reporter assay (HEK-Blue cells, SEAP reporter, ODN2006 stimulation)
condition parameters: HEK-Blue cells overexpressing human TLR9, SEAP reporter, ODN2006 5 nM
Catalogue of molecules with associated IC50

Some entries whose results are on file:
>  <molecule>
Cc1cn2cc(-c3[nH]c4ccc(C5CCNCC5)cc4c3C(C)C)cc(C)c2n1 [Example 120]

>  <target of assay>
human TLR9 (Homo sapiens, UniProt Q9NR96)

>  <IC50>
100 to 1000 nM

$$$$
>  <molecule>
Cc1cc2nccn2cc1-c1[nH]c2ccc(C3CCN(CC(=O)N(C)C)CC3)cc2c1C(C)C [Example 431]

>  <target of assay>
human TLR9 (Homo sapiens, UniProt Q9NR96)

>  <IC50>
1000 to 50000 nM

$$$$
>  <molecule>
Cc1nc2cc(-c3[nH]c4ccc(C5CCN(C(=O)C[C@H](C)O)CC5)cc4c3C(C)C)ccn2n1 [Example 602]

>  <target of assay>
human TLR9 (Homo sapiens, UniProt Q9NR96)

>  <IC50>
> 50000 nM

$$$$
>  <molecule>
Cc1cc(-c2[nH]c3ccc(C4CCN(CC(=O)N(C)C)CC4)cc3c2C(C)C)cc2cncn12 [Example 439]

>  <target of assay>
human TLR9 (Homo sapiens, UniProt Q9NR96)

>  <IC50>
1000 to 50000 nM

$$$$

Here CC(C)c1c(-c2ccc3nc(N)cn3n2)[nH]c2ccc(C3CCNCC3)cc12 [Example 24] was tested on human TLR9 (Homo sapiens, UniProt Q9NR96), and its IC50 came to 1000 to 50000 nM

Here CCc1c(-c2ccnc3[nH]ncc23)[nH]c2ccc(C3CCN(Cc4cnc[nH]4)CC3)cc12 [Example 863] was tested on human TLR9 (Homo sapiens, UniProt Q9NR96), and its IC50 came to 100 to 1000 nM

Here Cc1c(-c2ncnc3[nH]ncc23)[nH]c2ccc(C3CCN(C4CCN(C(C)C)CC4)CC3)cc12 [Example 816] was tested on human TLR9 (Homo sapiens, UniProt Q9NR96), and its IC50 came to < 100 nM

Here Cc1cn2cc(-c3[nH]c4ccc(C5CCNCC5)cc4c3CC(F)F)ccc2n1 [Example 129] was tested on human TLR9 (Homo sapiens, UniProt Q9NR96), and its IC50 came to 100 to 1000 nM

Reference source: patent US11739098B2
